Give IC50 for every item shown.
assay: Cytotoxicity against human HL60 cells after 48 hrs by MTT assay; assay type: functional, cell-based; conditions: HL-60, 48 h
Where a name gives a salt, the structure may show the parent alone.
Please give a number only; it is taken to be in µM.

Give reported IC50 value for COc1cccc2c1C(=O)c1c(O)c3c(c(O)c1C2=O)C[C@@](O)(C(=O)CO)C[C@@H]3O[C@H]1C[C@H](N)[C@H](O)[C@H](C)O1 [DOXORUBICIN HYDROCHLORIDE]
0.067

Give reported IC50 value for C=C(C)[C@H]1O[C@H]2CC[C@@]3(C)[C@@](O)(CC[C@]4(OC)O[C@@H]5OC(C)(C)[C@H]6C[C@@H]7C(=C)Cc8c(Cl)cc9[nH]c(c5c9c8[C@@]76O)[C@@]43C)[C@]23O[C@@H]3[C@H]1O
5

Give reported IC50 value for CC(C)(O)[C@H]1O[C@H]2CC[C@@]3(C)[C@@H](CC[C@H]4Cc5c([nH]c6ccccc56)[C@@]43C)C2=C[C@H]1O
2.6

###

experiment: Cytotoxicity against human HL60 cells after 48 hrs by MTT assay; assay type: functional, cell-based; conditions: HL-60, 48 h
Give pIC50 for every item shown.
pIC50 (log units): -log10 of the concentration in mol/L.

Give reported pIC50 value for C=C1Cc2c(Cl)cc3[nH]c4c5c3c2[C@H]2[C@@H]1C[C@@H]2C(C)(C)O[C@H]5[C@@H]1CC[C@@]2(O)[C@@]35O[C@@H]3[C@@H](O)[C@@H](C(=C)C)O[C@H]5CC[C@]2(C)[C@@]41C
5.48

Give reported pIC50 value for C=C(C)[C@H]1O[C@H]2CC[C@@]3(C)[C@@](O)(CC[C@H]4[C@@H]5OC(C)(C)[C@H]6C[C@@H]7C(=C)Cc8c(Cl)cc9[nH]c(c5c9c8[C@@]76O)[C@@]43C)[C@]23O[C@@H]3[C@H]1O
5.15

###

Give pIC50 for every item shown.
experiment: Cytotoxicity against human HL60 cells after 48 hrs by MTT assay; assay type: functional, cell-based; conditions: HL-60, 48 h
pIC50: −log10 of the molar value.

Give reported pIC50 value for C=C(C)[C@@H]1CC=C2[C@H](CC[C@@]3(C)[C@@]2(O)CC[C@H]2Cc4c([nH]c5ccc6c(c45)[C@@H]4[C@@H](C(C)(C)O)C[C@@H]4C6(C)C)[C@@]23C)O1
< 5.00

Give reported pIC50 value for C=C(C)[C@H]1O[C@H]2CC[C@@]3(C)[C@@](O)(CC[C@H]4Cc5c([nH]c6ccccc56)[C@@]43C)C2=C[C@H]1O
< 5.00

Give reported pIC50 value for C=C1Cc2ccc3[nH]c4c(c3c2[C@H]2[C@@H]1C[C@@H]2C(C)(C)O)C[C@@H]1CC[C@@]2(O)C3=C[C@@H](O)[C@@H](C(=C)C)O[C@H]3CC[C@]2(C)[C@@]41C
< 5.00

Recorded values, source ChEMBL document CHEMBL3865832.
